System: EBV gp350 20-mer linear peptides (gp350 regions)
Assay type: binding, Epstein-Barr virus
Details: 10 μg/ml mAb, 10 μg/ml peptide
Protocol: Forty-five sequential 20-mer linear peptides, covering the whole sequence of gp350 (GenBank: NC_007605.1), with an exception of aa 862-881, were synthesized using a solid phase method and cleaved using a low-high hydrogen fluoride method by the GenicBio, as previously described (58). The binding of anti-gp350 mAbs to 45 synthesized 20-mer sequential peptides covering the total length of gp350 was analyzed using indirect ELISA as described (58). […]
property: binding to gp350 region AA 102-201 (linear peptides)

m72A1: EBV anti-gp350 neutralizing mouse antibody purified from HB168 hybridoma (ATCC); SEQ ID NO: 100 / 101 (antibody, V domains shown, heavy chain mAb 72A1; light chain mAb 72A1) VH: PELVKPGTSMKISCKASGSSFTDYTMNWMKQSHGKNLEWIGLINPYNGGTRYNQKFKGKATLTLDKSSSTAYMEVLSLTSEDSAVYYCAGGLRRVNWFAYWGQGTLVSVSAAKTTPPSVYPLAPGSAAQTNSMVTLG VL: QAVLTQESALTTSPGETVTLTCRSSTGAVTTSNYANWVQEKPDHLFTGLIGGTNNRVPGVPARFSGSLIGDKAALTITGAQTEDEAIYFCVLWHSNHWVFGGGTKLTVL = bound
HB5: murine anti-EBV gp350 mAb, IgG2a κ; SEQ ID NO: 108 / 109; neutralizing (antibody, V domains shown, heavy chain mAb HB5; light chain mAb HB5, murine anti-EBV gp350 mAb, IgG2a κ; neutralizing) VH: AELVRPGASVKISCKAFGYTFTNHNINWVKQRPGQGLDWIGYINPYNDYTSYNQKFKGKATLTVDKSSNTAYMELSSLTSEDSAVYYCARSEGWLRRGAWFAYWGQGTLVTVSAAKTTAPSVYPLAPVCGDTTGSSVTLG VL: AILSVSPGERVSFSCRASQSIGTSIHWYQQRTNDSPRLLIKYASESISGIPPRFSGSGSGTDFTLSINSVESEDIADYHCQQSNSWPMLTFGAGTKLELKRADAAPTV = bound
h72A1: humanized 72A1 IgG1; heavy and light chain SEQ ID NOs: 180 and 181 (antibody, V domains shown) VH: EVQLVESGGGLVQPGGSLRLSCAASGSSFTDYTMNWMRQSPGKGLEWIGLINPYNGGTRYADSVKGRATLSLDKSKNTAYLQMNSLRAEDTAIYYCAGGLRRVNWFAYWGQGTLVTVSS VL: DAQLTQSPILLSASVGDRVTITCRSSTGAVTTSNYANWVQERTNGSFRGLIGGTNNRVPGVPSRFSGSLSGDDATLTISSLQPEDEADYFCVLWHSNHWVFGAGTKVEIKR = bound
